Would you kindly list IC50 for each of these compounds?
Test system: Plasmodium falciparum
Test: Antimalarial activity after 72 hrs against chloroquine-sensitive Plasmodium falciparum 3D7 infected erythrocytes by MSF assay
Type: functional, organism-based
Settings: 3D7, 72 h
A number alone suffices; assume µg/mL.

Annotate the compound `O=C(Nc1ccc(Cl)cc1)Nc1ccc2ncnc(Nc3cccc(C(F)(F)F)c3)c2c1` with its measured IC50.
0.0674

Specify reported IC50 for the compound shown: `Cc1ccc(Nc2ncnc3ccc(NC(=O)Nc4ccc(Cl)cc4)cc23)cc1`
0.0771

Return the recorded IC50 value; entry: `COc1ccc(Nc2ncnc3ccc(NC(=O)Nc4ccc(C)c(Cl)c4)cc23)cc1`
0.05

Please report the measured IC50 for `COc1ccc(Nc2ncnc3ccc(NC(=O)Nc4ccc(Cl)c(C(F)(F)F)c4)cc23)cc1OC`
0.0182

Data provenance is ChEMBL document CHEMBL1139315.
